Recorded values, source patent EP1247803A2.

# Subject of test: FLK-1 receptor (Mus musculus)
# Construct: expressed in transfected cells; host or cells: NIH3T3 C7#3
# Sequence (P35918 20-1345): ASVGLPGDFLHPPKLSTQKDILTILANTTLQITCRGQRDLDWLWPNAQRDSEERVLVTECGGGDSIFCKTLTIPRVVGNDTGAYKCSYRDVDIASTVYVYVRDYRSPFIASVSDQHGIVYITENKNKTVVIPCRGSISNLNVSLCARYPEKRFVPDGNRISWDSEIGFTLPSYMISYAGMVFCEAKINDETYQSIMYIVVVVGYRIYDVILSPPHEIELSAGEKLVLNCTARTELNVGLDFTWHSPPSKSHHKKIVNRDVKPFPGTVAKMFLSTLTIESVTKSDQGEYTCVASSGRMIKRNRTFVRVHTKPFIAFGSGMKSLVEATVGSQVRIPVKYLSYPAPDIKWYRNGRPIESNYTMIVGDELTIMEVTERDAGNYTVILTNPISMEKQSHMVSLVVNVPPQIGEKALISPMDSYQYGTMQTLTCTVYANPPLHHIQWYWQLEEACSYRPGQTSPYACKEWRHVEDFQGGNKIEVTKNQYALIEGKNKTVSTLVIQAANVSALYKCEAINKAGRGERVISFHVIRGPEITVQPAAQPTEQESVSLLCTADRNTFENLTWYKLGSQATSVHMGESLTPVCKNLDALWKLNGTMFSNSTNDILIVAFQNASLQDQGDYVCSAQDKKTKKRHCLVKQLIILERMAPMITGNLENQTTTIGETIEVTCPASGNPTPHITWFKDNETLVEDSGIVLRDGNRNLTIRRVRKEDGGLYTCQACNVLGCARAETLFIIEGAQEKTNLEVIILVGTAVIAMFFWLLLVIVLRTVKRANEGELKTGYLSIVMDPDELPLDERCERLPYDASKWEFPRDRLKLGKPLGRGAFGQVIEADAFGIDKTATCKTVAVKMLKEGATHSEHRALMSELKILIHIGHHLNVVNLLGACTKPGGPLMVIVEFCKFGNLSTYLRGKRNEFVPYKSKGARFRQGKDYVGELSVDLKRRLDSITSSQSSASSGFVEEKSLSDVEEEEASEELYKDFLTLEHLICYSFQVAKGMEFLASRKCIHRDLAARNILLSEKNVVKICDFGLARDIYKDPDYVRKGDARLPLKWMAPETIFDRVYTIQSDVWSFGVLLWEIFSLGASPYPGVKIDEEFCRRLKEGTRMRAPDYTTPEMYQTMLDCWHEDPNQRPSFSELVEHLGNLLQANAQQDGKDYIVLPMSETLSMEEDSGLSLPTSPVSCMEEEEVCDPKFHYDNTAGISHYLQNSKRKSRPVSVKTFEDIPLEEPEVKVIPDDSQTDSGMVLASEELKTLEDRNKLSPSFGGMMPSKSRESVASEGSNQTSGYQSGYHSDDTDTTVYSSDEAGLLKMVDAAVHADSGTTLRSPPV
# Assay method text: FLK-1 ELISA (kinase activity of the FLK-1 receptor in FLK-1/NIH3T3 cells, VEGF stimulated)
# Assay type: cell-based
Quantity: Fik Kinase %Inhibition (%)

* CNS(=O)(=O)c1ccc2c(c1)C(=Cc1cccn1C)C(=O)N2 | -2.1
* CCc1c(C)[nH]c(C=C2C(=O)Nc3ccc(I)cc32)c1C | 17.7
* CC(C)(C)c1cc(C=C2C(=O)Nc3ccc(S(=O)(=O)Nc4ccc(C(F)(F)F)cc4)cc32)cc(I)c1OCc1ccccc1 | 0.8
* COc1ccc(C=C2C(=O)Nc3ccc(I)cc32)c(OC)c1 | 24.9
* Cc1c(Br)ccc2c1C(=Cc1cccc([N+](=O)[O-])c1)C(=O)N2 | 11.8
* Cc1c(Br)ccc2c1C(=Cc1coc3c(Br)cc(Br)cc3c1=O)C(=O)N2 | 14.0
* O=C(O)COc1ccccc1C=C1C(=O)Nc2c(Br)cc(Br)cc21 | -16.3
* Cc1c(Br)ccc2c1C(=C1C(=O)N(C)c3ccccc31)C(=O)N2 | 19.7
* CCn1c2ccccc2c2cc(C=C3C(=O)Nc4ccc(S(=O)(=O)NC)cc43)ccc21 | -8.4
* CNS(=O)(=O)c1ccc2c(c1)C(=Cc1ccc(C(C)(C)C)cc1)C(=O)N2 | 11.1
* Cc1c(Br)ccc2c1C(=Cc1ccc(C#N)cc1)C(=O)N2 | -13.5
* COc1c(C)cc(C=C2C(=O)Nc3ccc(I)cc32)cc1C | 4.6
* N#Cc1cccc(C=C2C(=O)Nc3ccc(S(=O)(=O)N4CCOCC4)cc32)c1 | 12.5
* CC(C)(C)c1ccc(C=C2C(=O)Nc3ccc(S(=O)(=O)Nc4ccc(C(F)(F)F)cc4)cc32)cc1 | 18.5
* Cc1cc(C=C2C(=O)Nc3ccc(CCCl)cc32)oc1C | -1.4
* COc1cc(Br)cc(C=C2C(=O)Nc3ccc(CCCl)cc32)c1O | 2.5
* COc1c(C(C)(C)C)cc(C=C2C(=O)Nc3c(Br)cc(Br)cc32)cc1C(C)(C)C | -11.2
* CNS(=O)(=O)c1ccc2c(c1)C(=Cc1cc(O)c(O)c(Br)c1)C(=O)N2 | 15.2
* Cc1c(Br)ccc2c1C(=Cc1ccc(N(C)C)c3ccccc13)C(=O)N2 | -0.3
* O=C1Nc2ccc(I)cc2C1=Cc1cccc([N+](=O)[O-])c1 | 1.1
* Cc1cc(O)cc(O)c1C=C1C(=O)Nc2ccc(Br)c(C)c21 | 10.9
* COc1ccc(C=C2C(=O)Nc3ccc(S(=O)(=O)Nc4ccc(C(F)(F)F)cc4)cc32)cc1 | 16.2
* Cc1c(Br)ccc2c1C(=Cc1ccc(O)c(O)c1)C(=O)N2 | 15.3
* O=C1Nc2c(Br)cc(Br)cc2C1=Cc1ccc(Cl)c([N+](=O)[O-])c1 | 3.2
* COc1ccc2[nH]cc(C=C3C(=O)Nc4ccc(S(=O)(=O)Nc5ccc(C(F)(F)F)cc5)cc43)c2c1 | 52.5
* COc1c(C)cc(C=C2C(=O)Nc3ccc(S(=O)(=O)Nc4ccc(C(F)(F)F)cc4)cc32)cc1C | 13.5
* O=C1Nc2ccc(I)cc2C1=Cc1cccc(Oc2ccccc2)c1 | 2.0
* O=C1Nc2c(Br)cc(Br)cc2C1=Cc1c[nH]c2ccccc12 | -10.8
* O=C1Nc2ccccc2C1=C1C(=O)Nc2ccc(CCCl)cc21 | 3.6
* COc1cc(OC)c(OC)cc1C=C1C(=O)Nc2ccc(S(=O)(=O)N3CCOCC3)cc21 | 11.7
* CNS(=O)(=O)c1ccc2c(c1)C(=Cc1cc(Br)ccc1O)C(=O)N2 | 9.8
* O=C1Nc2c(Br)cc(Br)cc2C1=Cc1coc2ccccc2c1=O | -10.7
* Cn1cccc1C=C1C(=O)Nc2ccc(I)cc21 | -18.3
* O=C1Nc2ccc(S(=O)(=O)Nc3ccc(C(F)(F)F)cc3)cc2C1=Cc1c[nH]c2ccccc12 | 7.5
* CCOc1cc(C=C2C(=O)Nc3ccc(S(=O)(=O)NC)cc32)ccc1O | 5.8
* COc1cc(Br)c(O)c(C=C2C(=O)Nc3ccc(S(=O)(=O)N4CCOCC4)cc32)c1 | -0.2
